# experimental_protocol: Extended single-dose toxicity study including safety pharmacology endpoints, i.v. bolus (GLP)
# Format: in vivo, beagle dogs
# condition_set: beagle, dog, plasma, iv, 80 ug/kg; Male; 80 μg/kg single i.v. bolus; mean n = 3; read-out: C5 min
measurement_kind: level at 5 min (ng/mL)
Give the quantity in ng/mL, number only.

Can you look up the measured level at 5 min of CC(C)C[C@@H]1NC(=O)[C@H](Cc2cccc(NC(=O)CCCS(N)(=O)=O)c2)NC(=O)[C@H](CC(=O)O)NC(=O)[C@H]2CCCN2C(=O)[C@H](CCC(=O)O)NC(=O)[C@@H](NC(=O)[C@H](CCC(N)=O)NC(=O)CN2CCN(C(=O)CN3CCN(CC(=O)O)CCN(CC(=O)O)CCN(CC(=O)O)CC3)CC2)CSCc2cccc(c2)CSC[C@@H](C(N)=O)NC(=O)[C@H](CO)NC(=O)[C@H](Cc2c[nH]c3ccccc23)NC(=O)[C@H]([C@@H](C)O)NC1=O for me? 332
